Each entry below carries its recorded half-life at 1 h, 100 µM.
Assay: in vitro
Settings: CD-1, mouse, liver microsomes
Express it in h; write the number only.

compound	measured number
CN1CCN(CCCOc2ccc3ncnc(Nc4ccc(OCc5cccc(F)c5)c(Cl)c4)c3c2)CC1	0.957

We now examine a further compound.
Please report the recorded half-life at 1 h, 100 µM for O=C(O)Cc1ccccc1Nc1c(Cl)cccc1Cl [DICLOFENAC] .
1

* * *

Quick list: activity at 10 µM per entry.
Target: Epidermal growth factor receptor (Homo sapiens)
Sequence (P00533 whole entry): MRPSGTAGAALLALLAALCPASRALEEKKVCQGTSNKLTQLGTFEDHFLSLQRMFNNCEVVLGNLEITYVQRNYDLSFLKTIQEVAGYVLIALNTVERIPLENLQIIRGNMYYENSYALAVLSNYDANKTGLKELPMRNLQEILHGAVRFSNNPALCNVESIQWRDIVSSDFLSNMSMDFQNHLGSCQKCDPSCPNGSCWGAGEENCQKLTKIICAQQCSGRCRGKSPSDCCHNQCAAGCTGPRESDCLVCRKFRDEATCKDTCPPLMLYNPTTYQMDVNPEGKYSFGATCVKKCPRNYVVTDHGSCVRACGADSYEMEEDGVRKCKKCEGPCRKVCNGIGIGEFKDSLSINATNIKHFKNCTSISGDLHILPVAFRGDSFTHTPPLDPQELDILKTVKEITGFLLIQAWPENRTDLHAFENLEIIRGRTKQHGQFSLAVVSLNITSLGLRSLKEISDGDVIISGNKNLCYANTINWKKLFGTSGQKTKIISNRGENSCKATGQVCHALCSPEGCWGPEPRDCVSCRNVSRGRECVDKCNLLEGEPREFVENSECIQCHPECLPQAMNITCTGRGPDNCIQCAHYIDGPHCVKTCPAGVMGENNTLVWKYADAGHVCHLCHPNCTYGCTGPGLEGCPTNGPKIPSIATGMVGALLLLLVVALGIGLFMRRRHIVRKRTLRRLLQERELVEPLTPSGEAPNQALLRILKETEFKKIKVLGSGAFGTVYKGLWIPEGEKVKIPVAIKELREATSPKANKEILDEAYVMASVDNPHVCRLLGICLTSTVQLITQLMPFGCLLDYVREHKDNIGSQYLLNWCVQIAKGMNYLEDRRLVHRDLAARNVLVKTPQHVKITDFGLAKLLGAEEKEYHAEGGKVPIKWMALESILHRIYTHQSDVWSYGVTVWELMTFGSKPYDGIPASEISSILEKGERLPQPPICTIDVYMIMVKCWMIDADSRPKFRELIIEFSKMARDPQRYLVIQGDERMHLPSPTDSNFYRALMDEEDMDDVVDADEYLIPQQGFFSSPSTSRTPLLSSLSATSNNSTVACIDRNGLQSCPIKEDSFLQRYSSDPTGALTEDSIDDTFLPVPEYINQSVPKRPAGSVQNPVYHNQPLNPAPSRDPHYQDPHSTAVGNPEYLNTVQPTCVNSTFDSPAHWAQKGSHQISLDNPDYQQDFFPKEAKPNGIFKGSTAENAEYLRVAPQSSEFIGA
Conditions: 0.5 h
Description: Effect on human EGFR in presence of substrate and [gamma-32ATP] at 10 uM incubated for 30 mins by scintillation counting based radiometry assay relative to control
Give just the numeric value; % need not be written.

Consider the following illustrative entries.
O=C(CN1CCOCC1)Nc1ccc2ncnc(Nc3ccc(OCc4cccc(F)c4)c(Cl)c3)c2c1 -81
O=C(CN1CCOCC1)Nc1ccc2ncnc(Nc3ccc(Oc4cccc(C(F)(F)F)c4)c(Cl)c3)c2c1 -71
Cc1cccc(Oc2ccc(Nc3ncnc4ccc(NC(=O)CNCCO)cc34)cc2Cl)c1 -78
O=C(CNCCO)Nc1ccc2ncnc(Nc3ccc(OCc4cccc(F)c4)c(Cl)c3)c2c1 -78
O=C(CN1CCOCC1)Nc1ccc2ncnc(Nc3ccc(Oc4cccc(F)c4)c(Cl)c3)c2c1 -67
O=C(Nc1ccc2ncnc(Nc3ccc(Oc4cccc(F)c4)c(Cl)c3)c2c1)c1ccc(CNCCO)cc1 -70

Would you kindly share the measured activity at 10 µM for CN1CCN(CCCOc2ccc3ncnc(Nc4ccc(Oc5cccc(C(F)(F)F)c5)c(Cl)c4)c3c2)CC1 ?
-78

* * *

In this section, each of the compounds is paired with its reported remaining at 1 h, 100 µM.
Experiment: in vitro
Details: CD-1, mouse, liver microsomes
Description: Metabolic stability in CD-1 mouse liver microsomes assessed as parent compound remaining at 100 uM measured after 60 mins in presence of NADPH by LC-MS/MS analysis
# value in %; strip the unit string

Previously resolved entries follow.
CN1CCN(CCCOc2ccc3ncnc(Nc4ccc(OCc5cccc(F)c5)c(Cl)c4)c3c2)CC1 46.4
O=C(Nc1ccc2ncnc(Nc3ccc(Oc4cccc(F)c4)c(Cl)c3)c2c1)c1ccc(CNCCO)cc1 103

In the following, a different compound is considered.
Fill in: remaining at 1 h, 100 µM of O=C(O)Cc1ccccc1Nc1c(Cl)cccc1Cl is ___
50.2

* * *

Tested on: MCF7
Test: Antiproliferative activity against human MCF7 cells assessed as lethality at 10 uM after 48 hrs by SRB assay relative to control
Assay type: functional
Entries and their Activity values follow.
Please reply with the bare figure in % and do not write the unit itself.

Here is how some molecules turned out for Activity.
Cc1cccc(Oc2ccc(Nc3ncnc4ccc(NC(=O)CN5CCN(C)CC5)cc34)cc2Cl)c1 18
CN1CCN(CC(=O)Nc2ccc3ncnc(Nc4ccc(Oc5cccc(C(F)(F)F)c5)c(Cl)c4)c3c2)CC1 11.7

Need Activity of CN1CCN(CCCOc2ccc3ncnc(Nc4ccc(Oc5cccc(C(F)(F)F)c5)c(Cl)c4)c3c2)CC1 , thanks.
18

Next record, please: OCCNCCCOc1ccc2ncnc(Nc3ccc(Oc4cccc(C(F)(F)F)c4)c(Cl)c3)c2c1
18

And the next one, CN(C)Cc1ccc(C(=O)Nc2ccc3ncnc(Nc4ccc(Oc5cccc(F)c5)c(Cl)c4)c3c2)cc1 ?
11.7

Subsequent entry: CCN(CC)CCCOc1ccc2ncnc(Nc3ccc(Oc4cccc(C(F)(F)F)c4)c(Cl)c3)c2c1
11.7

Try this molecule too: O=C(Nc1ccc2ncnc(Nc3ccc(Oc4cccc(F)c4)c(Cl)c3)c2c1)c1ccc(CNCCO)cc1
18

Try the molecule CN1CCN(CCCOc2ccc3ncnc(Nc4ccc(OCc5cccc(F)c5)c(Cl)c4)c3c2)CC1
11.7

* * *

System: MCF7
Test: Antiproliferative activity against human MCF7 cells assessed as reduction in cell viability incubated for 72 hrs by WST8 assay
Format: functional, cell-based
Conditions: MCF7, 72 h
assay endpoint: IC50 (µM)
Response body: numeric value in µM, unit text excluded.

# example entries with known answers
CN(C)Cc1ccc(C(=O)Nc2ccc3ncnc(Nc4ccc(Oc5cccc(F)c5)c(Cl)c4)c3c2)cc1 2.64
CN1CCN(Cc2ccc(C(=O)Nc3ccc4ncnc(Nc5ccc(Oc6cccc(F)c6)c(Cl)c5)c4c3)cc2)CC1 1.62
O=C(CNCCO)Nc1ccc2ncnc(Nc3ccc(OCc4cccc(F)c4)c(Cl)c3)c2c1 8.62

Reported IC50, compound CCN(CC)CC(=O)Nc1ccc2ncnc(Nc3ccc(Oc4cccc(F)c4)c(Cl)c3)c2c1 : ____
5.68

Moving on to the next compound: CN1CCN(CCCOc2ccc3ncnc(Nc4ccc(OCc5cccc(F)c5)c(Cl)c4)c3c2)CC1
1.93

Please do the same for Fc1cccc(Oc2ccc(Nc3ncnc4ccc(OCCCN5CCOCC5)cc34)cc2Cl)c1 as well.
8.33
